Value source: paper PMC6651170

# Tested on: human adenovirus type 5 (AdV5)
# Procedure Text: microbe, parasite or virus in culture
# Type: cell-based
# Conditions Used: Human mastadenovirus C, Vero, 72 h, read-out: IC50 Human Adenovirus Type 5
pIC50: −log10 of the molar value.
Property Label: pIC50

Some solved entries appear below for comparison.
[[record]]
compound = "CN1CCN(c2ncnc3c2ncn3C[C@H]2[C@@H]3CC(O)[C@H]2C[C@@H]3Cl)CC1 (some centres unmarked) [Compound 6f]"
measurement_target = "human adenovirus type 5 (AdV5)"
value_measured = 3.98

[[record]]
compound = "COc1ncnc2c1ncn2C[C@H]1[C@@H]2CC(O)[C@H]1C[C@@H]2Cl (some centres unmarked) [Compound 7a]"
measurement_target = "human adenovirus type 5 (AdV5)"
value_measured = "< 3.01"

[[record]]
compound = "O=c1ccn(C[C@@H]2[C@@H]3C[C@H](Cl)[C@H]2C[C@H]3O)c(=O)[nH]1 [Compound 4b]"
measurement_target = "human adenovirus type 5 (AdV5)"
value_measured = "< 2.96"

[[record]]
compound = "OC[C@@H](Cc1ccccc1)Nc1ncnc2c1ncn2C[C@H]1[C@@H]2CC(O)[C@H]1C[C@@H]2Cl (some centres unmarked) [Compound 6e]"
measurement_target = "human adenovirus type 5 (AdV5)"
value_measured = "< 3.15"


Input line: Which measured pIC50 value corresponds to OC1C[C@H]2[C@H](Cn3cnc4c(NC5CCCC5)ncnc43)[C@@H]1C[C@@H]2Cl (some centres unmarked) [Compound 6c] ?
Output line: < 3.56

----------
# Test system: human adenovirus type 5 (AdV5)
# Procedure Text: microbe, parasite or virus in culture
# Assay type: cell-based
# Conditions Used: Human mastadenovirus C, Vero, 72 h, read-out: IC50 Human Adenovirus Type 5
Property Label: IC50

Some solved entries appear below for comparison.
[[record]]
compound = "Nc1ccn(C[C@H]2[C@@H]3CC(O)[C@H]2C[C@@H]3Cl)c(=O)n1 (some centres unmarked) [Compound 4d]"
value_measured = "> 1110 µM"

[[record]]
compound = "OC1C[C@H]2[C@H](Cn3cnc4c(N5CCOCC5)ncnc43)[C@@H]1C[C@@H]2Cl (some centres unmarked) [Compound 6h]"
value_measured = "> 600 µM"

[[record]]
compound = "OC1C[C@H]2[C@H](Cn3cnc4c(Cl)ncnc43)[C@@H]1C[C@@H]2Cl (some centres unmarked) [Compound 5]"
value_measured = "> 958 µM"

[[record]]
compound = "Nc1ncnc2c1ncn2C[C@H]1[C@@H]2CC(O)[C@H]1C[C@@H]2Cl (some centres unmarked) [Compound 6a]"
value_measured = "> 340 µM"

[[record]]
compound = "O=c1[nH]c(=O)n(C[C@H]2[C@@H]3CC(O)[C@H]2C[C@@H]3Cl)cc1F (some centres unmarked) [Compound 4a]"
value_measured = "> 1040 µM"

[[record]]
compound = "CCOc1ncnc2c1ncn2C[C@H]1[C@@H]2CC(O)[C@H]1C[C@@H]2Cl (some centres unmarked) [Compound 7b]"
value_measured = "> 929 µM"

[[record]]
compound = "OC1C[C@H]2[C@H](Cn3cnc4c(NCCc5ccccc5)ncnc43)[C@@H]1C[C@@H]2Cl (some centres unmarked) [Compound 6k]"
value_measured = "> 75 µM"


Input line: Which measured IC50 value corresponds to Cc1cn(C[C@H]2[C@@H]3CC(O)[C@H]2C[C@@H]3Cl)c(=O)[nH]c1=O (some centres unmarked) [Compound 4c] ?
Output line: > 1050 µM

----------
CC50 by entry:
# Procedure Text: in vitro
# Conditions Used: dog

[[record]]
molecule = "Cc1cn(C[C@H]2[C@@H]3CC(O)[C@H]2C[C@@H]3Cl)c(=O)[nH]c1=O (stereo partly drawn)"
value_measured = "> 1050 µM"


Input line: Which measured CC50 value corresponds to CCOc1ncnc2c1ncn2C[C@H]1[C@@H]2CC(O)[C@H]1C[C@@H]2Cl (stereo partly drawn) ?
Output line: > 929 µM

Input line: Now the same for Nc1ccn(C[C@H]2[C@@H]3CC(O)[C@H]2C[C@@H]3Cl)c(=O)n1 (stereo partly drawn)
Output line: > 1110 µM

----------
pIC50 by entry:
# Tested on: human adenovirus type 5 (AdV5)
# Procedure Text: microbe, parasite or virus in culture
# Type: cell-based
# Conditions Used: Human mastadenovirus C, Vero, 72 h, read-out: IC50 Human Adenovirus Type 5
pIC50: −log10 of the molar value.

Some solved entries appear below for comparison.
[[record]]
compound = "OC1C[C@H]2[C@H](Cn3cnc4c(NC5CC5)ncnc43)[C@@H]1C[C@@H]2Cl (stereo partly shown)"
measurement_target = "human adenovirus type 5 (AdV5)"
value_measured = "< 3.05"

[[record]]
compound = "OC1C[C@H]2[C@H](Cn3cnc4c(NC5CCCCC5)ncnc43)[C@@H]1C[C@@H]2Cl (stereo partly shown)"
measurement_target = "human adenovirus type 5 (AdV5)"
value_measured = 3.91


Input line: Which measured pIC50 value corresponds to Oc1ccc(CCNc2ncnc3c2ncn3C[C@H]2[C@@H]3CC(O)[C@H]2C[C@@H]3Cl)cc1 (stereo partly shown) ?
Output line: < 4.14

Input line: Now the same for CN1CCN(Nc2ncnc3c2ncn3C[C@H]2[C@@H]3CC(O)[C@H]2C[C@@H]3Cl)CC1 (stereo partly shown)
Output line: < 3.12

----------
CC50 by entry:
# Procedure Text: in vitro
# Conditions Used: African green monkey, CC50 (Human Adenovirus Type 5)
Write down the numeric answer in µM and omit the unit.

[[record]]
compound = "Nc1ncnc2c1ncn2C[C@H]1[C@@H]2CC(O)[C@H]1C[C@@H]2Cl (some centres unmarked)"
property_label = "CC50"
unit_label = "µM"
value_measured = 977


From here, focus on the item given below.
Input line: Which measured CC50 value corresponds to OC1C[C@H]2[C@H](Cn3cnc4c(NCCc5ccccc5)ncnc43)[C@@H]1C[C@@H]2Cl (some centres unmarked) ?
Output line: 245

----------
# Procedure Text: in vitro
# Conditions Used: African green monkey, CC50 (Herpes Simplex Virus Type 1)
CC50 by entry:

Some solved entries appear below for comparison.
[[record]]
compound = "Cc1cn(C[C@H]2[C@@H]3CC(O)[C@H]2C[C@@H]3Cl)c(=O)[nH]c1=O (stereo partly drawn) [Compound 4c]"
property_label = "CC50"
value_measured = "> 1050 µM"

[[record]]
compound = "OC[C@@H](Cc1ccccc1)Nc1ncnc2c1ncn2C[C@H]1[C@@H]2CC(O)[C@H]1C[C@@H]2Cl (stereo partly drawn) [Compound 6e]"
property_label = "CC50"
value_measured = "> 608 µM"

[[record]]
compound = "CN1CCN(c2ncnc3c2ncn3C[C@H]2[C@@H]3CC(O)[C@H]2C[C@@H]3Cl)CC1 (stereo partly drawn) [Compound 6f]"
property_label = "CC50"
value_measured = "> 719 µM"

[[record]]
compound = "OC1C[C@H]2[C@H](Cn3cnc4c(Cl)ncnc43)[C@@H]1C[C@@H]2Cl (stereo partly drawn) [Compound 5]"
property_label = "CC50"
value_measured = "> 830 µM"

[[record]]
compound = "Nc1ccn(C[C@H]2[C@@H]3CC(O)[C@H]2C[C@@H]3Cl)c(=O)n1 (stereo partly drawn) [Compound 4d]"
property_label = "CC50"
value_measured = "> 1110 µM"


From here, focus on the item given below.
Input line: Which measured CC50 value corresponds to CCOc1ncnc2c1ncn2C[C@H]1[C@@H]2CC(O)[C@H]1C[C@@H]2Cl (stereo partly drawn) [Compound 7b] ?
Output line: > 929 µM

----------
# Procedure Text: in vitro
# Conditions Used: dog
Property Label: CC50

Input line: Which measured CC50 value corresponds to OC1C[C@H]2[C@H](Cn3cnc4c(NCCc5ccccc5)ncnc43)[C@@H]1C[C@@H]2Cl (stereo partly drawn) [Compound 6k] ?
Output line: 254 µM

Input line: Now the same for Nc1ncnc2c1ncn2C[C@H]1[C@@H]2CC(O)[C@H]1C[C@@H]2Cl (stereo partly drawn) [Compound 6a]
Output line: > 1020 µM

Input line: Now the same for CN1CCN(c2ncnc3c2ncn3C[C@H]2[C@@H]3CC(O)[C@H]2C[C@@H]3Cl)CC1 (stereo partly drawn) [Compound 6f]
Output line: > 796 µM

Input line: Now the same for OC1C[C@H]2[C@H](Cn3cnc4c(NC5CC5)ncnc43)[C@@H]1C[C@@H]2Cl (stereo partly drawn) [Compound 6b]
Output line: 752 µM

Input line: Now the same for OC[C@@H](Cc1ccccc1)Nc1ncnc2c1ncn2C[C@H]1[C@@H]2CC(O)[C@H]1C[C@@H]2Cl (stereo partly drawn) [Compound 6e]
Output line: 188 µM

Input line: Now the same for OC1C[C@H]2[C@H](Cn3cnc4c(NC5CCCC5)ncnc43)[C@@H]1C[C@@H]2Cl (stereo partly drawn) [Compound 6c]
Output line: 227 µM

----------
CC50 by entry:
# Procedure Text: in vitro
# Conditions Used: African green monkey, CC50 (Human Adenovirus Type 5)

Some solved entries appear below for comparison.
[[record]]
compound = "COc1ncnc2c1ncn2C[C@H]1[C@@H]2CC(O)[C@H]1C[C@@H]2Cl (stereo partly drawn)"
property_label = "CC50"
value_measured = "> 972 µM"

[[record]]
compound = "OC1C[C@H]2[C@H](Cn3cnc4c(N5CCOCC5)ncnc43)[C@@H]1C[C@@H]2Cl (stereo partly drawn)"
property_label = "CC50"
value_measured = "> 600 µM"


From here, focus on the item given below.
Input line: Which measured CC50 value corresponds to CN1CCN(Nc2ncnc3c2ncn3C[C@H]2[C@@H]3CC(O)[C@H]2C[C@@H]3Cl)CC1 (stereo partly drawn) ?
Output line: > 766 µM
